- target.or.test.system: GABA-A receptor; alpha-3/beta-3/gamma-2 (Homo sapiens) (UniProt P18507+P28472+P34903)
- assay.info: Efficacy against recombinant human GABAA alpha3 receptor plus beta-3-gamma-2 expressed in L(tk-) cells by whole cell patch clamp method relative to chlordiazepoxide
- Assay type: functional, cell-based
assay.metric: Efficacy (%)
Respond numerically; units are % and should not be typed.

Recorded Efficacy, per entry:
[
  {
    "molecular.string": "CC(C)(O)c1cnn2c(-c3ccc(F)c(-c4c(F)cc(F)cc4C#N)c3)cnc2n1",
    "unit.of.measure": "%",
    "Efficacy": 37
  },
  {
    "molecular.string": "CN1C(=O)CN=C(c2ccccc2)c2cc(Cl)ccc21",
    "unit.of.measure": "%",
    "Efficacy": 80
  },
  {
    "molecular.string": "Cc1ccn2c(-c3cccc(-c4ccccc4C#N)c3)cnc2n1",
    "unit.of.measure": "%",
    "Efficacy": 69
  },
  {
    "molecular.string": "Cc1cnn2c(-c3cccc(-c4ccccc4C#N)c3)cnc2n1",
    "unit.of.measure": "%",
    "Efficacy": 34
  },
  {
    "molecular.string": "Cc1ccn2c(-c3cccc(-c4ccccc4C#N)c3)cnc2c1",
    "unit.of.measure": "%",
    "Efficacy": 55
  },
  {
    "molecular.string": "N#Cc1cc(F)ccc1-c1cc(-c2cnc3nc(C(F)(F)F)ccn23)ccc1F",
    "unit.of.measure": "%",
    "Efficacy": 25
  },
  {
    "molecular.string": "CCO/N=C(\\C)c1ccc2c(c1)ncn2-c1cccc(-c2cccnc2)c1",
    "unit.of.measure": "%",
    "Efficacy": 99
  },
  {
    "molecular.string": "N#Cc1cc(F)ccc1-c1cc(-c2cnc3nc(C(F)(F)F)cnn23)ccc1F",
    "unit.of.measure": "%",
    "Efficacy": -6
  }
]

Query: Please report the measured Efficacy for CC(C)(O)c1cnn2c(-c3ccc(F)c(-c4c(F)cccc4C#N)c3)cnc2n1
Result: 50

Query: Provide one value: measured Efficacy of CC(C)(O)c1cnn2c(-c3ccc(F)c(-c4ccc(F)cc4C#N)c3)cnc2n1
Result: 43

---

- assay.info: Volume of distribution in rhesus at 1 mg/kg, iv or 1 mg/kg, po
- Assay type: ADME, organism-based, Macaca mulatta
- condition.details: rhesus monkey, in vivo, read-out: Vdss
assay.metric: Vd (L/kg)
State just the number; it will be interpreted in L/kg.

Query: Identify measured Vd associated with CC(C)(O)c1cnn2c(-c3ccc(F)c(-c4c(F)cccc4C#N)c3)cnc2n1
Result: 2.1

---

# half-life listing for each entry below
- assay.info: Half life in rat at 1 mg/kg, […] 1 mg/kg, po
- Type: ADME, organism-based
- condition.details: in vivo
Hi! Could you send only the number? It should be in h, unit omitted.

[
  {
    "molecular.string": "CC(C)(O)c1cnn2c(-c3ccc(F)c(-c4c(F)cccc4C#N)c3)cnc2n1",
    "unit.of.measure": "h",
    "half-life": 11
  },
  {
    "molecular.string": "CC(C)(O)c1cnn2c(-c3ccc(F)c(-c4ccc(F)cc4C#N)c3)cnc2n1",
    "unit.of.measure": "h",
    "half-life": 38
  }
]

Query: Please look at this molecule and report its half-life: CC(C)(O)c1cnn2c(-c3ccc(F)c(-c4c(F)cc(F)cc4C#N)c3)cnc2n1
Result: 69

---

- assay.info: Oral bioavailability in dog at 1 mg/kg, iv or 1 mg/kg, po
- Assay type: ADME, organism-based, Canis lupus familiaris
- condition.details: in vivo
assay.metric: bioavailability
Put your answer as a value accompanied by its unit after it.

Query: Name the recorded bioavailability of the item CC(C)(O)c1cnn2c(-c3ccc(F)c(-c4c(F)cccc4C#N)c3)cnc2n1 in your answer.
Result: 22%

---

- assay.info: Plasma clearance in rat at 1 mg/kg, iv or 1 mg/kg, po
- Type: ADME, organism-based
assay.metric: clearance (L/h/kg)
All answers are understood in L/h/kg, so give the number only.

[
  {
    "molecular.string": "CC(C)(O)c1cnn2c(-c3ccc(F)c(-c4c(F)cc(F)cc4C#N)c3)cnc2n1",
    "numeric.value": 0.06
  }
]

Query: Return value of clearance for input CC(C)(O)c1cnn2c(-c3ccc(F)c(-c4c(F)cccc4C#N)c3)cnc2n1 , no commentary.
Result: 0.144

Query: Name the recorded clearance of the item CC(C)(O)c1cnn2c(-c3ccc(F)c(-c4ccc(F)cc4C#N)c3)cnc2n1 in your answer.
Result: 0.066

---

# key: entry, value: Ki
- target.or.test.system: GABA-A receptor; alpha-2/beta-3/gamma-2 (Homo sapiens, UniProt P18507+P28472+P47869)
- Sequence (P18507 whole entry): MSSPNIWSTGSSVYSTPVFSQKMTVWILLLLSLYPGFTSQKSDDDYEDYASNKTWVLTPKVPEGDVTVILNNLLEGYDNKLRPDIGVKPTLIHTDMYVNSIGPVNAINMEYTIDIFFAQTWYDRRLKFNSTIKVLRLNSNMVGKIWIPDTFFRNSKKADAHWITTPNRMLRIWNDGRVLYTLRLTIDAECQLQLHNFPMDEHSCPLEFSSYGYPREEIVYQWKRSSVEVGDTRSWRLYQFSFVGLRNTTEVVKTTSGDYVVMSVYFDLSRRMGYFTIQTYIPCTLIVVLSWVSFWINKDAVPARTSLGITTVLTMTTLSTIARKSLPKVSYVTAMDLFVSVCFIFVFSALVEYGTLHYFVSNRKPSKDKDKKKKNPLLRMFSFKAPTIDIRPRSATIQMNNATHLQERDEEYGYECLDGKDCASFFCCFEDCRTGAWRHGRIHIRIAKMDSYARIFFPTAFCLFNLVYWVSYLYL
- Sequence (P28472 whole entry): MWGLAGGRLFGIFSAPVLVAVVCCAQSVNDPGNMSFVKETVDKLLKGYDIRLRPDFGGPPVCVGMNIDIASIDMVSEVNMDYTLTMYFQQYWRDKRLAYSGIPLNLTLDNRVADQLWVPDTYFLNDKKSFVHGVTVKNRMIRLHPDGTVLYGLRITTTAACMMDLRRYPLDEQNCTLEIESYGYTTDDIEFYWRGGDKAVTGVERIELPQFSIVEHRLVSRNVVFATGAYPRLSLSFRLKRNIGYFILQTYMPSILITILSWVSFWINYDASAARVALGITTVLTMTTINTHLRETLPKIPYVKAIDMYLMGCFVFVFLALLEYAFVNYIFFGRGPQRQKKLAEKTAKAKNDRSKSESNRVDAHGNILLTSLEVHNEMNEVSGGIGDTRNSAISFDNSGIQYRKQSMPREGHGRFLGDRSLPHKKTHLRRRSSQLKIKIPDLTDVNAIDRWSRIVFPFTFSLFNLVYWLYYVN
- Sequence (P47869 whole entry): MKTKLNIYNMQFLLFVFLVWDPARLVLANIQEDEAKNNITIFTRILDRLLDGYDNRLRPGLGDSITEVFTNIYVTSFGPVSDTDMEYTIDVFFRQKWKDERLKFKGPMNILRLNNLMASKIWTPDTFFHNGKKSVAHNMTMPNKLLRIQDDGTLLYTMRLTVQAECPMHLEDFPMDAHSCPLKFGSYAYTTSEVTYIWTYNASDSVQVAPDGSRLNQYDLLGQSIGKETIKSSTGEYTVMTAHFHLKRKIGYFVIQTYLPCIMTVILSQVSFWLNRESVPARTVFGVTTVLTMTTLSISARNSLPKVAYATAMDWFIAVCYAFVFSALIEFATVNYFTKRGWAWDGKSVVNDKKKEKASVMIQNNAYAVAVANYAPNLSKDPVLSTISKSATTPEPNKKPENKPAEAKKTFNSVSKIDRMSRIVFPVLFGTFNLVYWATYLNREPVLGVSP
- assay.info: Displacement of [3H] Ro15-1788 from recombinant human GABAA alpha2 receptor plus beta-3-gamma-2 expressed in L(tk-) cells
Write it as a number; the unit nM goes unstated.

Query: Provide the reported Ki (system: GABA-A receptor; alpha-2/beta-3/gamma-2 (Homo sapiens, UniProt P18507+P28472+P47869)) for N#Cc1cc(F)ccc1-c1cc(-c2cnc3nc(C(F)(F)F)ccn23)ccc1F
Result: 0.73

Query: With GABA-A receptor; alpha-2/beta-3/gamma-2 (Homo sapiens, UniProt P18507+P28472+P47869) as the test system, provide measured Ki for this compound: Cc1ccn2c(-c3cccc(-c4ccccc4C#N)c3)cnc2c1
Result: 3.7

Query: Fetch value of Ki on GABA-A receptor; alpha-2/beta-3/gamma-2 (Homo sapiens, UniProt P18507+P28472+P47869) for CC(C)(O)c1cnn2c(-c3ccc(F)c(-c4c(F)cc(F)cc4C#N)c3)cnc2n1 .
Result: 1

Query: For GABA-A receptor; alpha-2/beta-3/gamma-2 (Homo sapiens, UniProt P18507+P28472+P47869), give Ki of the listed compound: Cc1cnn2c(-c3cccc(-c4ccccc4C#N)c3)cnc2c1
Result: 19
